assay: Water solubility of an additive; format: physicochemical; settings: 25° C., demineralized water
Counter-ions that a name gives are not always drawn.
Kindly supply the reported Solubility H2O values for the records listed here.
Answers are plain numbers, in w %.

Recorded Solubility H2O, per entry:
{"compound": "CCCCOC(=O)C(O)C(O)C(=O)OCCCC (centres unmarked) [DBT, Dibutyl tartarate]", "unit.string": "w %", "Solubility H2O": 0.8}
{"compound": "CCCCOC(=O)CC(O)C(=O)OCCCC (centres unmarked) [DBM, Dibutyl malate]", "unit.string": "w %", "Solubility H2O": 0.2}
{"compound": "COC(=O)CC(O)(CC(=O)OC)C(=O)OC [TMC, Trimethyl citrate]", "unit.string": "w %", "Solubility H2O": 6}

The recorded Solubility H2O for entry C=C(C)C(=O)OCC(CO)OC(=O)C(=C)C (centres unmarked) [GDM, Glycerol dimethacrylate] equals 0.4

* * *

assay: Water solubility of an additive; assay type: physicochemical; conditions: 25° C., demineralized water
Where a name gives a salt, the structure may show the parent alone.
measured.quantity: Solubility H2O

Recorded Solubility H2O, per entry:
{"compound": "CCCCOC(=O)CC(O)(CC(=O)OCCCC)C(=O)OCCCC [TBC, Tributyl citrate]", "assay.result": "<0.05 w %"}
{"compound": "CCCCOC(=O)CC(CC(=O)OCCCC)(OC(C)=O)C(=O)OCCCC [ATBC, Acetyl tributyl citrate]", "assay.result": "<0.1 w %"}
{"compound": "CC(C)OC(=O)C(O)C(O)C(=O)OC(C)C (stereo not shown) [DIPT, Diisopropyl tartarate]", "assay.result": ">10 w %"}

Please examine the following record next.
The recorded Solubility H2O for entry CCOC(=O)CC(O)C(=O)OCC (stereo not shown) [DEM, Diethyl malate] equals >10 w %
